Every entry's value here was drawn from PubChem BioAssay (NCI).

tested on: OVCAR-4 ovarian; test: NCI-60 one-dose screen, 48 h; settings: 10 µM unless noted
About 83,000 compounds went through this panel and 20% of them were active in at least one assay; those are over-represented in the sample as a whole. Active and inactive are the calls of the source. How the source made its calls: active means growth percent below 10; inactive means the rest.
Outcomes: active, inactive

{"Line notation": "NS(=O)(=O)c1ccc(N2Cc3cc(Cl)ccc3OC3=C2C(=O)N(CC2CCCCC2)C3=O)cc1", "Class": "active"}
{"Line notation": "C=C1C(=O)O[C@H]2[C@H]1CC/C(COC(=O)/C=C/c1cccnc1)=C\\CC[C@@]1(C)O[C@@H]21", "Class": "inactive"}
{"Line notation": "Cc1cc(C)nc(NS(=O)(=O)c2ccc(Nc3ccc4c5c(n(CCCN(C)C)c(=O)c4c3)-c3ccccc3C5=O)cc2)n1", "Class": "inactive"}
{"Line notation": "COC(=O)c1oc2c(C(=O)/C=C/c3ccc(OC)cc3)c(OCCCN3CCCCC3)ccc2c1C", "Class": "inactive"}
{"Line notation": "Cc1ccc(-c2nc(C#N)c(S(=O)(=O)N(C)CCO)o2)cc1", "Class": "inactive"}
{"Line notation": "CCCn1cc(/C=N\\N=C2\\C(=O)Nc3ccc(C)cc32)c2ccccc21", "Class": "inactive"}
{"Line notation": "CC(=O)c1ccc(NC(=O)CSc2nnc(-c3cc(-c4ccc(C)cc4)nc4ccccc34)o2)cc1", "Class": "active"}
{"Line notation": "NC(=O)C(O)(c1ccccc1)c1ccccc1", "Class": "inactive"}
{"Line notation": "COc1ccc(C(=O)c2cc(OC)c(OC)c(OC)c2)cc1OC(=O)CCl", "Class": "inactive"}
{"Line notation": "O=C1C(=O)c2c(nc3ccc(C(F)(F)F)cn23)-c2ccccc21", "Class": "active"}
{"Line notation": "CC(=O)c1c(OCC#N)ccc2c(C)cc(=O)oc12", "Class": "inactive"}
{"Line notation": "Cc1cccc(NC(=O)c2sc3nc4c(cc3c2N)CN(Cc2ccccc2)CC4)c1C", "Class": "inactive"}
{"Line notation": "O=C(CN1N=C(c2ccc(F)cc2)CCC1=O)Nc1nc2ccccc2s1", "Class": "inactive"}
{"Line notation": "COC(=O)c1cncc(C(=O)Nc2ccc(-n3cnc4ccccc43)cc2)c1", "Class": "inactive"}
{"Line notation": "COc1ccc2[nH]c(=O)c(/C=C/C(=O)/C=C/c3ccc(O)c(OC)c3)cc2c1", "Class": "inactive"}
{"Line notation": "CCCCCOC(=O)c1ccccc1O", "Class": "inactive"}
{"Line notation": "COC(=O)/C=C1\\SC(=Nc2ccc(F)cc2)N(CCc2c[nH]c3ccccc23)C1=O", "Class": "inactive"}
{"Line notation": "Nc1c(C(=O)Nc2ccccn2)sc2nc3c(cc12)CCCCCC3", "Class": "inactive"}
{"Line notation": "C[C@@H]1C(=O)[C@@H]2C[C@@H](O)[C@@H](O)C[C@]2(C)[C@H]2CC[C@@]3(C)C(=C12)CC[C@@H]3[C@@](C)(O)[C@H](O)CCC(C)(C)O", "Class": "inactive"}
{"Line notation": "COc1ccc(-c2[nH]c3ccccc3c2C=C(C#N)C#N)cc1", "Class": "inactive"}

====

test system: OVCAR-4 ovarian; test: NCI-60 one-dose screen, 48 h; settings: 10 µM unless noted
The panel holds about 83,000 compounds, 20% with a hit somewhere; the sample as a whole holds those more often. Activity calls are given as the source filed them. Rule for the calls: active = growth percent below 10; inactive = the rest.
Outcomes: active, inactive

{"Compound": "COc1ccc(C2=NN(c3ccc(S(N)(=O)=O)cc3)C(c3ccc(Cl)cc3)C2)c(O)c1 (stereo not drawn)", "Class": "inactive"}
{"Compound": "Cc1[nH]c(N=Nc2ccccc2)nc1N=Nc1ccccc1", "Class": "inactive"}
{"Compound": "CN1CCN(CC#CCOC(=O)CNC(=O)[C@]23CCC(C)(C)C[C@H]2C2=CC[C@@H]4[C@@]5(C)CC[C@H](O)C(C)(C)[C@@H]5CC[C@@]4(C)[C@]2(C)CC3)CC1", "Class": "inactive"}
{"Compound": "O=c1c2ccccc2oc2ccc(OCCCCCCN3CCCCCC3)cc12", "Class": "inactive"}
{"Compound": "O=S(=O)(Nc1nccs1)c1ccc(Nc2nc(-c3ccncc3)cs2)cc1", "Class": "inactive"}
{"Compound": "COc1ccc2c(c1)Oc1nc(N)c(C#N)c(N)c1C2Sc1ccc(SC)cc1 (stereo not drawn)", "Class": "inactive"}
{"Compound": "CCn1cc(C(=O)O)c(=O)c2cc(F)c(N3CCN(CC(=O)Nc4ccc(/C(C)=N/OC)cc4)CC3)cc21", "Class": "inactive"}
{"Compound": "COc1ccc(/C=C(/C(=O)N2CCCC2)c2cc(OC)c(OC)c(OC)c2)cc1", "Class": "inactive"}
{"Compound": "Nc1ccc(C2=NN(C(=O)c3cc(-c4ccc(Cl)cc4)nc4ccccc34)C(c3ccc(Cl)cc3)C2)cc1 (stereo not drawn)", "Class": "inactive"}
{"Compound": "Cc1nc2sc(C(=O)Nc3cccc4ccccc34)c(N)c2cc1C(C)O (stereo not drawn)", "Class": "inactive"}
{"Compound": "CC(C)NS(=O)(=O)c1cccc(-c2ccc3c(=O)n(CCCN)c4c(c3c2)C(=O)c2ccccc2-4)c1", "Class": "inactive"}
{"Compound": "Cc1ccc(C(=O)/C(=C/c2ccc([N+](=O)[O-])cc2)S(=O)Cc2ccccc2)cc1 (stereo not drawn)", "Class": "inactive"}
{"Compound": "c1ccc(Sc2ncccn2)nc1", "Class": "inactive"}
{"Compound": "Cc1ccc(CS/C(=C\\c2ccc([N+](=O)[O-])cc2)C(=O)c2ccc(F)cc2)cc1", "Class": "inactive"}
{"Compound": "C#CCN1C(=O)c2ccccc2N(CC#C)C12CCN(Cc1cn(CC(=O)Nc3ccccc3C(N)=O)nn1)CC2", "Class": "inactive"}
{"Compound": "COc1cc(-c2csc(NC(=O)Nc3cc(Cl)cc(Cl)c3)n2)cc(OC)c1OC", "Class": "active"}
{"Compound": "Nc1ccc(C(=O)Nc2cccc(C(=O)Nc3ccc4c(O)c(N=Nc5ccc(N=Nc6ccc(S(=O)(=O)O)cc6)cc5)c(S(=O)(=O)O)cc4c3)c2)cc1", "Class": "inactive"}
{"Compound": "CN1CCN(C(=O)[C@@]2(C)CC[C@]3(C)CC[C@]4(C)C(=CC[C@@H]5[C@@]6(C)CC[C@H](OC(=O)c7cccnc7)C(C)(C)[C@@H]6CC[C@]54C)[C@@H]3C2)CC1", "Class": "inactive"}
